Form field: Ki (one value per entry).
biological target: Cell division control protein 42 homolog (Homo sapiens, UniProt P60953); assay: Cdc42 activated mutant GTP-binding inhibitors, SAR follow-up, biochemical, bead-based multiplex flow cytometry, additional SAR set (AID 2021)
Sequence (P60953 whole entry): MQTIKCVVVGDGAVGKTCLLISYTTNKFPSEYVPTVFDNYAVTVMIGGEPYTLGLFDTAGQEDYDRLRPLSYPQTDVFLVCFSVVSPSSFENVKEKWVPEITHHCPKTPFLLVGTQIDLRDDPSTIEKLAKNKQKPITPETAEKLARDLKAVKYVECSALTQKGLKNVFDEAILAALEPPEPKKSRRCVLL
The figure you give is taken to be in µM; do not add the unit.

>>> reading("O=C1NC(=O)/C(=C2/C(=O)Nc3ccccc32)N1")
0.81

Alright, here's another compound for you.
Query :: Request - read-out Ki | tested on Cell division control protein 42 homolog (Homo sapiens, UniProt P60953) | compound O=C1N=c2c(Br)cccc2=C1c1[nH]c2ccccc2c1NO
Result :: 8.52
